System: upland rice (Oryza sp., var. Tebonnet, RICE)
Experimental protocol: Post-emerge test, crop safety
Format: in vivo
Condition: post-emerge, 63 g ai/ha, 14 days after application, rating scale 0-100
Measured phytotoxicity rating RICE, listed per entry for reference.
Format: numeric value only, no unit, no commentary.

Smiles record	phytotoxicity rating RICE
COc1c(Cl)cc(F)c(-n2c(=O)cc(C(F)(F)F)n(C)c2=O)c1NC(=O)c1ccc(Cl)c(Cl)c1	70

Field: next compound
Input line: Endpoint output: phytotoxicity rating RICE of COc1ccc(C(=O)Nc2c(OC)c(Cl)cc(F)c2-n2c(=O)cc(C(F)(F)F)n(C)c2=O)cc1 . Value?
Output line: 70

----------
Tested on: ivyleaf morningglory (Ipomoea hederacea, IPOHE)
Experimental protocol: Post-emerge test, greenhouse herbicide activity screening
Assay type: in vivo
Condition: post-emerge, 63 g ai/ha, 14 days after application, rating scale 0-100
Measured phytotoxicity rating IPOHE, listed per entry for reference.
Format: numeric value only, no unit, no commentary.

Input line: Endpoint output: phytotoxicity rating IPOHE of COc1c(Cl)cc(F)c(-n2c(=O)cc(C(F)(F)F)n(C)c2=O)c1NC(=O)OCc1ccc(Cl)c(Cl)c1 . Value?
Output line: 100

----------
Tested on: large crabgrass (Digitaria sanguinalis, DIGSA)
Experimental protocol: Post-emerge test, greenhouse herbicide activity screening
Format: in vivo
Condition: post-emerge, 250 g ai/ha, phytotoxicity rating 0-100 at 14 days after application
# if measured Post-emerge Herbicidal Activity DIGSA < 10: TRUE  # else: FALSE

Take a look at these entries with their results.
Compound	Group
COc1c(Cl)cc(F)c(-n2c(=O)n3n(c2=O)CCCC3)c1NC(=O)c1ccc(F)cc1F [9-16]	TRUE
COc1c(Cl)cc(F)c(-n2c(=O)n3n(c2=O)CCCC3)c1NC(=O)c1ccc2ccccc2c1 [9-15]	FALSE
COc1c(Cl)cc(F)c(-n2ncc(C(F)(F)F)cc2=O)c1NC(=O)c1ccc2ccccc2c1 [Compound 11-6]	TRUE
Cc1c(Cl)cc(F)c(-n2c(=O)cc(C(F)(F)F)n(C)c2=O)c1NC(=O)OCc1ccc(Cl)cc1 [4-61]	FALSE
COc1c(Cl)cc(F)c(-n2ncc(C(F)(F)F)c(C)c2=O)c1NC(=O)c1ccc2ccccc2c1 [11-13]	FALSE
COc1c(Cl)cc(F)c(-n2nnn(CCCF)c2=O)c1NC(=O)COCc1ccccc1 [Compound 5-28]	FALSE
C#CCOc1c(Cl)cc(F)c(N2C(=O)C3=C(CCCC3)C2=O)c1N [Compound 8-3]	TRUE
CC(C)Oc1c(Cl)cc(F)c(N2C(=O)C3=C(CCCC3)C2=O)c1NC(=O)c1ccc(F)cc1F [8-18]	FALSE

Now look at this entry.
Input line: For this compound, is Post-emerge Herbicidal Activity DIGSA lower than 10? O=C(Nc1cc(Cl)ccc1N1C(=O)C2CCCCN2C1=O)c1ccc2ccccc2c1 (stereo not shown) [12-8]
Output line: TRUE

----------
Measured AMARE phytotoxicity rating, listed per entry for reference.
Test system: redroot pigweed (Amaranthus retroflexus, AMARE)
Experimental protocol: Post-emerge test, greenhouse herbicide activity screening
Assay type: in vivo
Condition: post-emerge, 63 g ai/ha, 14 days after application, rating scale 0-100
Format: numeric value only, no unit, no commentary.

A selection of reference data follows.
Smiles record	Metric name	Value
COc1c(Br)cc(F)c(-n2c(=O)cc(C(F)(F)F)n(C)c2=O)c1NC(=O)C=Cc1ccccc1	AMARE phytotoxicity rating	100
COc1c(Cl)cc(F)c(-n2c(=O)cc(C(F)(F)F)n(C)c2=O)c1NC(=O)CCc1cc(C)ccc1C	AMARE phytotoxicity rating	100
Cn1c(C(F)(F)F)cc(=O)n(-c2c(F)cc(Cl)cc2NC(=O)c2ccc3ccccc3c2)c1=O	AMARE phytotoxicity rating	95
COc1c(Cl)cc(F)c(-n2c(=O)cc(C(F)(F)F)n(C)c2=O)c1NC(=O)C=Cc1ccccc1F	AMARE phytotoxicity rating	100
COc1ccccc1C=CC(=O)Nc1c(OC)c(Cl)cc(F)c1-n1c(=O)cc(C(F)(F)F)n(C)c1=O	AMARE phytotoxicity rating	100
C=Cc1ccc(C(=O)N(C(=O)c2ccc(C=C)cc2)c2c(OC)c(Br)cc(F)c2-n2c(=O)cc(C(F)(F)F)n(C)c2=O)cc1	AMARE phytotoxicity rating	0
Cn1c(C(F)(F)F)cc(=O)n(-c2ccc(Cl)cc2NC(=O)c2ccc3ccccc3c2)c1=O	AMARE phytotoxicity rating	100
COc1c(Cl)cc(F)c(-n2c(=O)cc(C(F)(F)F)n(C)c2=O)c1NC(=O)c1ccc2ccccc2c1OC	AMARE phytotoxicity rating	60
COc1c(Cl)cc(F)c(-n2c(=O)cc(C(F)(F)F)n(C)c2=O)c1NC(=O)CSC(C)C	AMARE phytotoxicity rating	50
CCSCC(=O)Nc1c(OC)c(Cl)cc(F)c1-n1c(=O)cc(C(F)(F)F)n(C)c1=O	AMARE phytotoxicity rating	60

Input line: Endpoint output: AMARE phytotoxicity rating of COc1c(Cl)cc(F)c(-n2c(=O)cc(C(F)(F)F)n(C)c2=O)c1NC(=O)c1c(C)cccc1C . Value?
Output line: 30

Input line: Quick one: COc1c(Cl)cc(F)c(-n2c(=O)cc(C(F)(F)F)n(N)c2=O)c1NC(=O)C=Cc1ccccc1
Output line: 80

Input line: Quick one: COc1c(Cl)cc(Cl)c(-n2c(=O)cc(C(F)(F)F)n(C)c2=O)c1NC(=O)c1ccc2ccccc2c1
Output line: 75

Input line: Quick one: COc1c(C#N)cc(F)c(-n2c(=O)cc(C(F)(F)F)n(C)c2=O)c1NC(=O)C=Cc1ccccc1
Output line: 100
